# Study System: 5-hydroxytryptamine receptor 2C (Homo sapiens, UniProt P28335); further: assay procedure not described here
# Sequence (P28335 whole entry): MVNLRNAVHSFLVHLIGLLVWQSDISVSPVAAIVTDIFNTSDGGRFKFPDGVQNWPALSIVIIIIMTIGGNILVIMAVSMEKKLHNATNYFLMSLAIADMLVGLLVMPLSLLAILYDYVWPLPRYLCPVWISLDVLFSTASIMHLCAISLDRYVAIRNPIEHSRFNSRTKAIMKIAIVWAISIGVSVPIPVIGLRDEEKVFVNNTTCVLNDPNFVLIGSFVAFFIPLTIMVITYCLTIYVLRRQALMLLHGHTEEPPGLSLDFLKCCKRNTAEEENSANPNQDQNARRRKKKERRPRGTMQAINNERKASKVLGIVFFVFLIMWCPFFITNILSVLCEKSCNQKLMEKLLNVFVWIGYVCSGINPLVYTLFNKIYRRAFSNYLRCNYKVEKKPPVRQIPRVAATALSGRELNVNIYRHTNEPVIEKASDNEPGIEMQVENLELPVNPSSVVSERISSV
Experimental Endpoint: AC50

[
  {
    "Compound": "Cc1cc2cc3c(C)cc(=O)oc3c(C)c2o1",
    "AC50": "> 30 µM"
  },
  {
    "Compound": "CC(C(=O)O)c1ccc2c(c1)[nH]c1ccc(Cl)cc12 (stereo unspecified)",
    "AC50": "> 30 µM"
  },
  {
    "Compound": "C/C(=C\\C(=O)OCCCCCCCCC(=O)O)C[C@@H]1OC[C@H](C[C@@H]2O[C@H]2[C@@H](C)[C@H](C)O)[C@@H](O)[C@H]1O",
    "AC50": "> 30 µM"
  }
]

Next up:
Prompt line: Fill in reported AC50 for this entry: CCOC(=O)O[C@]1(C(=O)OCCl)CC[C@H]2[C@@H]3CCC4=CC(=O)C=C[C@]4(C)[C@H]3[C@@H](O)C[C@@]21C [LOTEPREDNOL ETABONATE]
Response line: > 30 µM

* * *

# Study System: Muscarinic acetylcholine receptor M2 (Homo sapiens); further: assay procedure not described here
# Sequence (P08172 whole entry): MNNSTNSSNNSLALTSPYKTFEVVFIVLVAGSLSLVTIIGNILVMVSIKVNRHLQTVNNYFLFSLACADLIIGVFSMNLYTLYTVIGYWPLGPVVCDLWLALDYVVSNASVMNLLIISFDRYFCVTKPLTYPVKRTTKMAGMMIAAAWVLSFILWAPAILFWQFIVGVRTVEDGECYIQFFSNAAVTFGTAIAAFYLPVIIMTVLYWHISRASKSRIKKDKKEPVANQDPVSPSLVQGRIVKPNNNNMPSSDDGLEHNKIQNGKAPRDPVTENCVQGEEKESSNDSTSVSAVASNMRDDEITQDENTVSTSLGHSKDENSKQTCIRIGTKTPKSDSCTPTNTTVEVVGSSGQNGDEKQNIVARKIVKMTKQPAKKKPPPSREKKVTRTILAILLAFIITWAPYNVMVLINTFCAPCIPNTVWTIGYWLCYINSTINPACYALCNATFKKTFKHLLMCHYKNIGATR
# Format: functional, cell-based
Experimental Endpoint: AC50

[
  {
    "Molecule": "CCCCCCCCCCCCCCCCCCCCCC(=O)Nc1ccn([C@@H]2O[C@H](CO)[C@@H](O)[C@@H]2O)c(=O)n1",
    "Measurement": "> 30 µM"
  },
  {
    "Molecule": "C=C[C@@]1(C)CC(=O)[C@]2(O)[C@@]3(C)[C@@H](O)CCC(C)(C)[C@@H]3[C@H](O)[C@H](OC(C)=O)[C@@]2(C)O1",
    "Measurement": "1.9 µM"
  }
]

Prompt line: Enter AC50 (test system Muscarinic acetylcholine receptor M2 (Homo sapiens)) for CN(C)CCc1c[nH]c2ccc(Cn3cncn3)cc12; further: assay procedure not described here
Response line: > 30 µM

Prompt line: Enter AC50 (test system Muscarinic acetylcholine receptor M2 (Homo sapiens)) for Oc1ccc2c(c1)CC[C@H](c1ccccc1)[C@@H]2c1ccc(OCCN2CCCC2)cc1; further: assay procedure not described here
Response line: 15 µM

Prompt line: Enter AC50 (test system Muscarinic acetylcholine receptor M2 (Homo sapiens)) for NC(=O)CN1CCCC1=O; further: assay procedure not described here
Response line: > 30 µM

Prompt line: Enter AC50 (test system Muscarinic acetylcholine receptor M2 (Homo sapiens)) for CC12CC3CC(C)(C1)CC(N)(C3)C2 [MEMANTINE]; further: assay procedure not described here
Response line: > 10 µM

Prompt line: Enter AC50 (test system Muscarinic acetylcholine receptor M2 (Homo sapiens)) for C=C1/C(=C\C=C2/CCC[C@]3(C)[C@@H]([C@H](C)/C=C/[C@@H](O)C4CC4)CC[C@@H]23)C[C@@H](O)C[C@@H]1O; further: assay procedure not described here
Response line: > 30 µM

Prompt line: Enter AC50 (test system Muscarinic acetylcholine receptor M2 (Homo sapiens)) for O=C1CN(/N=C/c2ccc(-c3ccc([N+](=O)[O-])cc3)o2)C(O)=N1; further: assay procedure not described here
Response line: > 10 µM

* * *

Here's a batch of compounds along with measured AC50 for Histamine H1 receptor (Homo sapiens).

Sample records with AC50:
[
  {
    "Compound": "C/N=C(\\NC)NCc1ccccc1",
    "Measurement": "> 30 µM"
  },
  {
    "Compound": "C[C@H](CCC(=O)O)[C@H]1CC[C@H]2[C@@H]3[C@@H](O)C[C@@H]4C[C@H](O)CC[C@]4(C)[C@H]3CC[C@]12C",
    "Measurement": "> 30 µM"
  },
  {
    "Compound": "O=[N+]([O-])c1ccc(O)c2ncccc12",
    "Measurement": "4.9 µM"
  },
  {
    "Compound": "Oc1ccc2c(c1)[C@@]13CCCC[C@@]1(O)[C@@H](C2)N(CC1CCC1)CC3",
    "Measurement": "> 30 µM"
  },
  {
    "Compound": "CC(S)C(=O)NCC(=O)O (configuration not stated)",
    "Measurement": "> 30 µM"
  },
  {
    "Compound": "CN(CC1(C)CCCO1)S(=O)(=O)c1ccc(Cl)c(S(N)(=O)=O)c1 (configuration not stated) [MEFRUSIDE]",
    "Measurement": "> 30 µM"
  },
  {
    "Compound": "CCOC(=O)c1cncn1[C@H](C)c1ccccc1 [ETOMIDATE]",
    "Measurement": "> 10 µM"
  },
  {
    "Compound": "C/C(=C\\C(=O)OCCCCCCCCC(=O)O)C[C@@H]1OC[C@H](C[C@@H]2O[C@H]2[C@@H](C)[C@H](C)O)[C@@H](O)[C@H]1O",
    "Measurement": "> 10 µM"
  }
]

Prompt line: Enter AC50 (test system Histamine H1 receptor (Homo sapiens)) for C[C@H](Cc1ccc(O)c(O)c1)[C@@H](C)Cc1ccc(O)c(O)c1; further: assay procedure not described here
Response line: > 30 µM

Prompt line: Enter AC50 (test system Histamine H1 receptor (Homo sapiens)) for CC(=O)OCC(=O)[C@@]1(O)[C@H](C)C[C@H]2[C@@H]3CCC4=CC(=O)C=C[C@]4(C)[C@@]3(F)[C@@H](O)C[C@@]21C [DEXAMETHASONE ACETATE]; further: assay procedure not described here
Response line: > 10 µM

Prompt line: Enter AC50 (test system Histamine H1 receptor (Homo sapiens)) for CC1OC2(CS1)CN1CCC2CC1 (configuration not stated); further: assay procedure not described here
Response line: > 30 µM

* * *

# Study System: Gastrin/cholecystokinin type B receptor (Homo sapiens); further: assay procedure not described here
# Sequence (P32239 whole entry): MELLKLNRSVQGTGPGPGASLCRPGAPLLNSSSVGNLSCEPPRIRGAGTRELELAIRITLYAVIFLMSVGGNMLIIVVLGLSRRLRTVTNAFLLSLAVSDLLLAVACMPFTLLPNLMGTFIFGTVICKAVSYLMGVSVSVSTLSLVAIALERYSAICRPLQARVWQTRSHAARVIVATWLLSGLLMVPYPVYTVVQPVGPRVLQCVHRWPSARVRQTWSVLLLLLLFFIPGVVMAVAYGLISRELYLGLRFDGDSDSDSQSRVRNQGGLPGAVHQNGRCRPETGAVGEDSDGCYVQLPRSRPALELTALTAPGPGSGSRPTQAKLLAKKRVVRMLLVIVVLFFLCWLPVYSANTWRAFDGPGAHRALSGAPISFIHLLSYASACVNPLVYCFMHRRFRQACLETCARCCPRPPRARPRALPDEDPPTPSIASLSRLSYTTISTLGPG
Known AC50 of a selection of compounds

[
  {
    "Compound": "[H]/N=C(/N)N/C(=N/[H])NCCc1ccccc1",
    "AC50": "> 30 µM"
  }
]

Prompt line: Fill in reported AC50 for this entry: CN(C)CC[C@@H](c1ccc(Cl)cc1)c1ccccn1
Response line: > 30 µM

Prompt line: Fill in reported AC50 for this entry: COc1cc2nc(N3CCN(C(=O)C4CCCO4)CC3)nc(N)c2cc1OC (configuration not stated)
Response line: > 30 µM

Prompt line: Fill in reported AC50 for this entry: CCCCCC(=O)O[C@]1(C(C)=O)CC[C@H]2[C@@H]3CCC4=CC(=O)CC[C@]4(C)[C@H]3CC[C@@]21C [HYDROXYPROGESTERONE CAPROATE]
Response line: > 30 µM

Prompt line: Fill in reported AC50 for this entry: C=CC[C@@H]1/C=C(\C)C[C@H](C)C[C@H](OC)[C@H]2O[C@@](O)(C(=O)C(=O)N3CCCC[C@H]3C(=O)O[C@H](/C(C)=C/[C@@H]3CC[C@@H](O)[C@H](OC)C3)[C@H](C)[C@@H](O)CC1=O)[C@H](C)C[C@@H]2OC [TACROLIMUS ANHYDROUS]
Response line: > 30 µM

Prompt line: Fill in reported AC50 for this entry: C[C@@H](Oc1cc(-c2cnn(C3CCNCC3)c2)cnc1N)c1c(Cl)ccc(F)c1Cl
Response line: > 30 µM

Prompt line: Fill in reported AC50 for this entry: C=CCNc1nc(NCC=C)nc(N2CCN(C(c3ccc(F)cc3)c3ccc(F)cc3)CC2)n1
Response line: > 30 µM
